test system: Burkholderia cepacia (1322, V23); experiment: MIC-assay, Mueller-Hinton broth with G-block alginate, 384-well, OD600; conditions: Table 8, G-block (OligoCF-5/20) 10%
Below, each entry is listed alongside its reported MIC.
PROPERTY_NAME: MIC (µg/mL)

CC[C@H]1OC(=O)[C@H](C)[C@@H](O[C@H]2C[C@@](C)(OC)[C@@H](O)[C@H](C)O2)[C@H](C)[C@@H](O[C@@H]2O[C@H](C)C[C@H](N(C)C)[C@H]2O)[C@](C)(O)C[C@@H](C)C(=O)[C@H](C)[C@@H](O)[C@]1(C)O [Erythromycin] : 64
C[C@@H](O)[C@H]1C(=O)N2C(C(=O)O)=C(SCCN=CN)C[C@H]12 [Imipenem] : 16

====

system: V23 1322 Burkholderia cepacia; experiment: MIC assay, CAMHB with alginate oligomer, no visible growth; assay type: cell-based; settings: Table 5; V23 MDR Burk cep; OligoCF-5/20 +2% G
Marks after values point to notes of the source that are not given here.
PROPERTY_NAME: MIC

CN(C)[C@@H]1C(O)=C(C(N)=O)C(=O)[C@@]2(O)C(O)=C3C(=O)c4c(O)cccc4[C@@](C)(O)[C@H]3[C@H](O)[C@@H]12 : 128^† μg/ml
O=C(O)c1cn(C2CC2)c2cc(N3CCNCC3)c(F)cc2c1=O : 64 µg/mL
CC[C@H]1OC(=O)[C@H](C)[C@@H](O[C@H]2C[C@@](C)(OC)[C@@H](O)[C@H](C)O2)[C@H](C)[C@@H](O[C@@H]2O[C@H](C)C[C@H](N(C)C)[C@H]2O)[C@](C)(O)C[C@@H](C)CN(C)[C@H](C)[C@@H](O)[C@]1(C)O : 64^† μg/ml
CC(C)(O/N=C(\C(=O)N[C@@H]1C(=O)N2C(C(=O)[O-])=C(C[n+]3ccccc3)CS[C@H]12)c1csc(N)n1)C(=O)O : 32^† μg/ml
C[C@@H](O)[C@H]1C(=O)N2C(C(=O)O)=C(S[C@@H]3CN[C@H](C(=O)N(C)C)C3)[C@H](C)[C@H]12 : 64 µg/mL
C[C@H]1[C@H](NC(=O)/C(=N\OC(C)(C)C(=O)O)c2csc(N)n2)C(=O)N1S(=O)(=O)O : >512 µg/mL

====

system: V10 (Egypt) Acinetobacter lwoffii; assay: MIC assay, CAMHB with alginate oligomer, no visible growth; format: cell-based; conditions: Table 5; V10 MDR Acin. lwoff; OligoCF-5/20 +2% G
Marks after values point to notes of the source that are not given here.
PROPERTY_NAME: MIC

C[C@H]1[C@H](NC(=O)/C(=N\OC(C)(C)C(=O)O)c2csc(N)n2)C(=O)N1S(=O)(=O)O [Aztreonam] : 16^† μg/ml
C[C@@H](O)[C@H]1C(=O)N2C(C(=O)O)=C(S[C@@H]3CN[C@H](C(=O)N(C)C)C3)[C@H](C)[C@H]12 [Meropenem] : 0.5^† μg/ml
CC[C@H]1OC(=O)[C@H](C)[C@@H](O[C@H]2C[C@@](C)(OC)[C@@H](O)[C@H](C)O2)[C@H](C)[C@@H](O[C@@H]2O[C@H](C)C[C@H](N(C)C)[C@H]2O)[C@](C)(O)C[C@@H](C)CN(C)[C@H](C)[C@@H](O)[C@]1(C)O [Azithromycin] : <0.25 µg/mL
CC1(C)C[C@@H]1C(=O)N/C(=C\CCCCSC[C@H](N)C(=O)O)C(=O)O [Primaxin, Imipenem/cilastatin] : <0.5 µg/mL
CC[C@H]1OC(=O)[C@H](C)[C@@H](O[C@H]2C[C@@](C)(OC)[C@@H](O)[C@H](C)O2)[C@H](C)[C@@H](O[C@@H]2O[C@H](C)C[C@H](N(C)C)[C@H]2O)[C@](C)(O)C[C@@H](C)C(=O)[C@H](C)[C@@H](O)[C@]1(C)O [Erythromycin] : <0.5 µg/mL
CN(C)[C@@H]1C(O)=C(C(N)=O)C(=O)[C@@]2(O)C(O)=C3C(=O)c4c(O)cccc4[C@@](C)(O)[C@H]3[C@H](O)[C@@H]12 [Oxytetracycline] : 0.5 µg/mL
CC(C)(O/N=C(\C(=O)N[C@@H]1C(=O)N2C(C(=O)[O-])=C(C[n+]3ccccc3)CS[C@H]12)c1csc(N)n1)C(=O)O [Ceftazidime] : 2 µg/mL
